# targetOrTestSystem: IgE antibodies of the individual allergic patient serum II/17
# assaySummary: EAST inhibition, individual serum II/17
Values of allergenic potency (Prel) at 50% inhibition (relative to native Phl p 5b) greater than or equal to 0.1 map to met; values below map to not met.

[
  {
    "binder": "natural Phl p 5b, purified by affinity chromatography (protein) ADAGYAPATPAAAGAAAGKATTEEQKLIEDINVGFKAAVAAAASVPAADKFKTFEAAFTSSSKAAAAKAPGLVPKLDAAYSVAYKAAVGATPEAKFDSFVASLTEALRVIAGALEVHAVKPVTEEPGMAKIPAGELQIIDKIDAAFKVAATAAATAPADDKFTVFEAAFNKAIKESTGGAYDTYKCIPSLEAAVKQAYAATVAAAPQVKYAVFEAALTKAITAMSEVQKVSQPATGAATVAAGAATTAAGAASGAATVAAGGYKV",
    "classAssignment": "met"
  },
  {
    "binder": "rPhl p 5b deletion mutant DM1 (deletion K50-P132, D49L) (protein) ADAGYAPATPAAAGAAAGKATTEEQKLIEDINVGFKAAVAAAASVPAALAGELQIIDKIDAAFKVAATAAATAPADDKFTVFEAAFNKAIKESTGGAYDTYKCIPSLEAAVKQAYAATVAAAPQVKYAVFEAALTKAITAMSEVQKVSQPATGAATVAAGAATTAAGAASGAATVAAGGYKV",
    "classAssignment": "not met"
  },
  {
    "binder": "rPhl p 5b point mutant PM3 (A13C) (protein) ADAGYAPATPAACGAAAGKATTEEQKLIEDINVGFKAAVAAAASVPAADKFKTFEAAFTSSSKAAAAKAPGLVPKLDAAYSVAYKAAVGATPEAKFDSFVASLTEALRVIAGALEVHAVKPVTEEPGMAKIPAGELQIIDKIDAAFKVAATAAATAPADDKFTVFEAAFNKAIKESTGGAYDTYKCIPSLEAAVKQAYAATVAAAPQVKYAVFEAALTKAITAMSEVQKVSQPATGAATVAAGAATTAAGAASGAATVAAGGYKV",
    "classAssignment": "met"
  },
  {
    "binder": "rPhl p 5b point mutant PM1 (N32D, D49L, K50A) (protein) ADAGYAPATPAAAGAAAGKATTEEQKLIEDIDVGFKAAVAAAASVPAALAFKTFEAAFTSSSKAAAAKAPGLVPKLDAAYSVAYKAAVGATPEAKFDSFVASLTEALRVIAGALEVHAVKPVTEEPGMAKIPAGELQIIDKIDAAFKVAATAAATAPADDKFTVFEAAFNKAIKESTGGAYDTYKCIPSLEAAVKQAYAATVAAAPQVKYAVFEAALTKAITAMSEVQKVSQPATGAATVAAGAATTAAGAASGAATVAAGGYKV",
    "classAssignment": "met"
  },
  {
    "binder": "rPhl p 5b deletion mutant DM3 (deletion A154-T177, A220T) (protein) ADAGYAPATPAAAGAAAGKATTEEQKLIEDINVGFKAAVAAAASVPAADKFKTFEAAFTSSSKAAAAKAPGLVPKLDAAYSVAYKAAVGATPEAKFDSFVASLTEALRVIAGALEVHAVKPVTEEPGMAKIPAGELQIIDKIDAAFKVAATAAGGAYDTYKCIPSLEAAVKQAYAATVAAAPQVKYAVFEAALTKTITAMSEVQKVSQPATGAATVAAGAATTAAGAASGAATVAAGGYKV",
    "classAssignment": "not met"
  }
]
